- Target system: T1, EsCas13d, nuclease-dead (Eubacterium siraeum, UniProt B0MS50, R295A;H300A;R849A;H854A)
- T1 sequence: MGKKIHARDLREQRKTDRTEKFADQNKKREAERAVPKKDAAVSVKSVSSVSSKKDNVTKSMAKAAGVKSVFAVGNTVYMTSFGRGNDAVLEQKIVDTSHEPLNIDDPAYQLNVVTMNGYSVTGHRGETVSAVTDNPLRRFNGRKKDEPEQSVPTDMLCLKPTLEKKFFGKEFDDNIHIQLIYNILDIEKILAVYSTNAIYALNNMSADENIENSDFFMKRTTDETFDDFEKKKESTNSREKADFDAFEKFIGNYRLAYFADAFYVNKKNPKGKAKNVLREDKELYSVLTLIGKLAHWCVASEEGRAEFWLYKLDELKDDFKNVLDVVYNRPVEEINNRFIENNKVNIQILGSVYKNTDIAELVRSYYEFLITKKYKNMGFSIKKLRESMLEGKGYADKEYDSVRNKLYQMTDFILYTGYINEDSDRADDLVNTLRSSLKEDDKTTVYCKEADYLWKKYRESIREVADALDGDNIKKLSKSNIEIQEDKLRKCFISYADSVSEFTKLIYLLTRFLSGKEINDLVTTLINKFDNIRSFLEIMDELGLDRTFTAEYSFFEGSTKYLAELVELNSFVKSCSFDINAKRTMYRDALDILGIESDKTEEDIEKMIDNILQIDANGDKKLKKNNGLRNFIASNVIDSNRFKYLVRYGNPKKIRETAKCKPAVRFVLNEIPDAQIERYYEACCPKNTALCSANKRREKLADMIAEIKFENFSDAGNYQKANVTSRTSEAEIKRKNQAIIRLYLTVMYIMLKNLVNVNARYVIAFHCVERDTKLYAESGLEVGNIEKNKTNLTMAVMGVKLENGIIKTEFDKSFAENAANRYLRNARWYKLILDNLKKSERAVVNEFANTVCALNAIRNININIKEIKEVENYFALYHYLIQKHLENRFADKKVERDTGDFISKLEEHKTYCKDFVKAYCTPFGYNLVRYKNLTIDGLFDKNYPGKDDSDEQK
- Method: crRNA (strand 1, pre-loaded); Mg2+; 40 mM Tris-HCl pH 7.5, 150 mM NaCl, 6 mM MgCl2, 1 mM DTT, 0.1% Tween-20, 0.2 mg/ml BSA; 25 C; 10 min per concentration, then washed
- Condition label: tags: His6-TwinStrep-SUMO cleaved; N-terminal SNAP kept (SNAP-Surface 488); label: 3' end held by stalled T7 RNA polymerase
pKd: −log10 of the molar value.
Decision: pKd compared against 8; not below it gives Satisfied, below it gives Not satisfied.

# Binder, Class name
rows = [
    ("target 1 insC 3' of 22,insA 3' of 2 (mixed) RNA 1: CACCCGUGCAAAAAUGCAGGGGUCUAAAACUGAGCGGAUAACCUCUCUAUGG RNA 2: GGGAAUGGAUCCACAUCUACGAAUUCGUACCCAUAGAGAGGUUAUCCGCUCAACCGAGAUCGGAAGAGCACACGU", "Not satisfied"),
    ("target 1 MT 5'PFS AGA 3'PFS UCA (mixed) RNA 1: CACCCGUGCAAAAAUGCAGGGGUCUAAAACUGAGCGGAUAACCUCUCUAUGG RNA 2: GGGAAUGGAUCCACAUCUACGAAUUCAGACCAUAGAGAGGUUAUCCGCUCAUCAAGAUCGGAAGAGCACACGU", "Not satisfied"),
    ("target 1 MT 5'PFS UAG 3'PFS UCA (mixed) RNA 1: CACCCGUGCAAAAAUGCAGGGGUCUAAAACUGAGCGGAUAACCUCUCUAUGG RNA 2: GGGAAUGGAUCCACAUCUACGAAUUCUAGCCAUAGAGAGGUUAUCCGCUCAUCAAGAUCGGAAGAGCACACGU", "Not satisfied"),
    ("target 1 U3A,C6G (mixed) RNA 1: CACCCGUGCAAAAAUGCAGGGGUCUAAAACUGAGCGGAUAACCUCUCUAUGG RNA 2: GGGAAUGGAUCCACAUCUACGAAUUCGUACCAUAGAGAGGUUAUCGGCACACCGAGAUCGGAAGAGCACACGU", "Satisfied"),
    ("target 1 MT 5'PFS CCG 3'PFS UCC (mixed) RNA 1: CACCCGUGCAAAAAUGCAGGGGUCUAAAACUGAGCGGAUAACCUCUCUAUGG RNA 2: GGGAAUGGAUCCACAUCUACGAAUUCCCGCCAUAGAGAGGUUAUCCGCUCAUCCAGAUCGGAAGAGCACACGU", "Satisfied"),
    ("target 3 complement block 3-7 (mixed) RNA 1: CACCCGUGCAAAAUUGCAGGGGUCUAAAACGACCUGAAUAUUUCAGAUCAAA RNA 2: GGGAAUGGAUCCACAUCUACGAAUUCGUUUUUGAUCUGAAAUAUAGUCCUCUGCAGAUCGGAAGAGCACACGU", "Not satisfied"),
    ("target 3 A5G,U22C (mixed) RNA 1: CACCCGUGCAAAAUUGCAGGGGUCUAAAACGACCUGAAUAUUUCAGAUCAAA RNA 2: GGGAAUGGAUCCACAUCUACGAAUUCGUUCUUGAUCUGAAAUAUUCGGGUCUGCAGAUCGGAAGAGCACACGU", "Not satisfied"),
    ("target 1 complement block 1-12 (mixed) RNA 1: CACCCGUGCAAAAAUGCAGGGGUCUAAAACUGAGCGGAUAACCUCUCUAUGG RNA 2: GGGAAUGGAUCCACAUCUACGAAUUCGUACCAUAGAGAGCAAUAGGCGAGUCCGAGAUCGGAAGAGCACACGU", "Not satisfied"),
    ("target 2 MT 5'PFS UAG 3'PFS CAA (mixed) RNA 1: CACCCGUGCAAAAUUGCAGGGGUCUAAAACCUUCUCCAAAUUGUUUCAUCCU RNA 2: GGGAAUGGAUCCACAUCUACGAAUUCUAGAGGAUGAAACAAUUUGGAGAAGCAAAGAUCGGAAGAGCACACGU", "Satisfied"),
    ("target 1 C4U,U8C (mixed) RNA 1: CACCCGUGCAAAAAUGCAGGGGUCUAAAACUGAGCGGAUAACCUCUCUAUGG RNA 2: GGGAAUGGAUCCACAUCUACGAAUUCGUACCAUAGAGAGGUUACCCGUUCACCGAGAUCGGAAGAGCACACGU", "Not satisfied"),
    ("target 2 MT 5'PFS CUG 3'PFS UAG (mixed) RNA 1: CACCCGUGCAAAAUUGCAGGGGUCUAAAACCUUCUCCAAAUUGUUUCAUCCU RNA 2: GGGAAUGGAUCCACAUCUACGAAUUCCUGAGGAUGAAACAAUUUGGAGAAGUAGAGAUCGGAAGAGCACACGU", "Satisfied"),
]
